System: wheat, spring
Assay: Test D pre-/postemergence herbicide test
Assay type: in vivo, Triticum aestivum
Conditions: Preemergence, 125 g ai/ha; scale 0 to 100 (0 no effect, 100 complete control)
QUANTITY: Plant response rating, Wheat, Spring
Reply briefly: the number, and no unit.

Sample records with Plant response rating, Wheat, Spring:
In: What value of Plant response rating, Wheat, Spring has been recorded for this entry: O=C1NCC(c2ccc(C(F)(F)F)cc2)C1C(=O)Nc1cccc(F)c1F (racemic) [Compound 202]
Out: 25

In: What value of Plant response rating, Wheat, Spring has been recorded for this entry: O=C1NCC(c2cc(F)c(F)cc2F)C1C(=O)Nc1cccc(F)c1F (stereo not shown)
Out: 0

In: What value of Plant response rating, Wheat, Spring has been recorded for this entry: O=C1NCC(c2ccc(C(F)(F)F)cc2)C1C(=O)Nc1cccc(F)c1F (stereo not shown) [Compound 80]
Out: 10

---
In: What value of Plant response rating, Wheat, Spring has been recorded for this entry: O=C1NCC(c2ccc(F)c(C(F)(F)F)c2)C1C(=O)Nc1cccc(F)c1F (racemic)
Out: 20

meta.source: patent US10294202B2
